// provenance: patent US4585795A

// MIC lookup, one value per entry
Tested on: Aureobasidium pullulans
Experiment: dish cultures, growth inhibition of A. pullulans (Czapek-Dox agar)
Assay type: cell-based
Conditions: 360 h, pH 2.5, read-out: concentration at which growth was inhibited
Reply with just the number (in µg/mL).

Consider the worked cases shown below.
CCCCC(CC)C(=O)O (centres unmarked) :: 50
CCCCCCCCCCCC[N+](C)(C)Cc1ccccc1.[Cl-] [BAC, dodecylbenzyldimethylammonium chloride] :: 50
CCCCCCCCCCCC[N+](C)(C)C.[Cl-] [DMC, dodecyltrimethylammonium chloride] :: 15
CC(=O)Oc1ccccc1C(=O)O :: 25

Here is another compound to look at.
Asked: Identify measured MIC corresponding to `O=C(O)c1ccccc1`
Given back: 50
